Listing of recorded GI50 by entry.
# Test system: HCT-15 colon
# assay_name: NCI tumour cell line growth inhibition, 48 h

# input_smiles, GI50
data = [
    ("Oc1ccc2ccccc2c1N=Nc1nccs1", "320 nM"),
    ("CCc1ccc(/C=C\\c2cc(OC)c(OC)c(OC)c2)cc1", "32.7 nM"),
    ("CC(=O)OC[C@]1(C)C=C2C(=O)[C@](C)(O)C3(CC3)C(C)=C2[C@H]1O", "30.6 nM"),
]

====

# System: HCC-2998 colon
# assay_name: NCI tumour cell line growth inhibition, 48 h

# molecule, qualifier_symbol, TGI, µM
measured = [
    ("CC(=O)OC/C=C(/C=C/CNC1CCCCC1)OC(C)=O", "=", 40.3),
    ("CCOC(=O)C(CC#Cc1ccc(C#CCC(NC(C)=O)C(=O)OCC)cc1)NC(C)=O (stereo not given)", ">", 100),
    ("COc1cc(C2NC(=O)c3ccccc3N2)ccc1OCCCCCOc1c(OC)cc(C2=NOC(c3cc(OC)c(OC)c(OC)c3)C2)cc1OC (stereo not given)", "=", 37.8),
    ("COC(=O)/C(=N/NC(=O)C[N+](C)(C)C)C(C(=O)OC)C(=O)C(=O)Nc1ccc(F)cc1 (stereo not given)", ">", 100),
    ("c1ccc2c3c(c(N4CCOCC4)nc2c1)CCCC3", ">", 100),
    ("Cc1nn(-c2cc(Cl)ccc2[N+](=O)[O-])c(C)c1Cl", ">", 100),
    ("O=c1c2cc([N+](=O)[O-])ccc2sc2ccsc12", ">", 100),
    ("COc1ccc(-c2cc(=O)c3c(OC)c(OC)c(OC)cc3o2)cc1", "=", 49),
    ("CNC(=O)N(CCC#N)[C@H]1CCCC[C@@H]1N(C(=O)NC)c1ccccc1", ">", 100),
    ("CN1C(=O)C2(Cc3cn(C45CC67SSC(CO)(C(=O)N6C4Nc4ccccc45)N(C)C7=O)c4ccccc34)SSC1(CO)C(=O)N2C (stereo not given)", "=", 0.136),
]

====

# Tested on: HS 578T breast
# assay_name: NCI tumour cell line growth inhibition, 48 h

# molecule, assay_target, TGI
measured = [
    ("COc1ccc(-c2cnnc3c(-c4cccc(C(F)(F)F)c4)cnn23)cc1", "HS 578T breast", "> 100 µM"),
    ("COc1cc(C2NC(=O)c3ccccc3N2)ccc1OCCCCCOc1c(OC)cc(C2=NOC(c3cc(OC)c(OC)c(OC)c3)C2)cc1OC (stereo not given)", "HS 578T breast", "> 82 µM"),
    ("COC1/C=C\\C=C(/C)C(=O)NC2=CC(=O)C(=O)C(=C2O)CC(C)CC(OC)C(O)C(C)/C=C(\\C)C1OC(N)=O (stereo not given)", "HS 578T breast", "> 100 µM"),
    ("CC(C)(C)c1cc(/C=C(\\C#N)C(=O)NCCO)cc(C(C)(C)C)c1O", "HS 578T breast", "> 100 µM"),
    ("COc1ccc(-c2cc(=O)c3c(OC)c(OC)c(OC)cc3o2)cc1", "HS 578T breast", "> 100 µM"),
    ("CC[C@@]1(O)C(=O)OCc2c1cc1n(c2=O)Cc2c-1nc1cc3c(cc1c2CCl)OCO3", "HS 578T breast", "> 54.1 µM"),
    ("Brc1cccc(N=NN2CCCC2)c1", "HS 578T breast", "> 100 µM"),
    ("N#Cc1ccc(O)c(C2=NCC(c3cccc(Oc4ccccc4)c3)O2)c1 (stereo not given)", "HS 578T breast", "> 100 µM"),
    ("CCOc1cc(-c2nc3ccccn3c2/N=C/c2cc(Br)ccc2O)ccc1O", "HS 578T breast", "> 100 µM"),
    ("CC1S/C(=N/c2nnc(-c3ccccc3)o2)NC1=O (stereo not given)", "HS 578T breast", "> 100 µM"),
    ("NC(=O)c1cc2ccccc2o/c1=N/O", "HS 578T breast", "91.6 µM"),
    ("COc1cc(/C=C\\C(=O)O)ccc1OCc1ccccc1", "HS 578T breast", "> 100 µM"),
    ("O=c1[nH]nc(-c2ccccc2)c2[nH]c(-c3ccccc3)cc12", "HS 578T breast", "> 100 µM"),
    ("Nc1cc(N)c2nc(-c3ccccc3)c(Nc3ccc(Cl)c(Cl)c3)nc2c1", "HS 578T breast", "51.7 µM"),
    ("CC1(C)CNC(=O)C2(C=NC(C)(C)CNC(=O)C3(C=N1)CCCO3)CCCO2 (stereo not given)", "HS 578T breast", "> 10 µM"),
    ("C=CCCCCCCCCC(=O)[O][Sn]([CH2]CCC)([CH2]CCC)[CH2]CCC", "HS 578T breast", "0.493 µM"),
    ("O=c1oc2cc(O)ccc2c(O)c1C(c1ccc(C(c2c(O)c3ccc(O)cc3oc2=O)c2c(O)c3ccc(O)cc3oc2=O)cc1)c1c(O)c2ccc(O)cc2oc1=O", "HS 578T breast", "> 100 µM"),
    ("Cc1nc(C)c(Cc2ccccc2)o1", "HS 578T breast", "> 100 µM"),
    ("Nc1nc(Cl)c2ncn(Cc3ccc(C45CC6CC(CC(C6)C4)C5)c(O)c3)c2n1", "HS 578T breast", "12.1 µM"),
    ("CC1(CNCc2ccccc2)CC(CCc2ccccc2)N(C(=O)c2ccc([N+](=O)[O-])cc2)C1Cc1ccc(O)cc1 (stereo not given)", "HS 578T breast", "46.8 µM"),
]

====

# System: CAKI-1 renal
# assay_name: NCI tumour cell line growth inhibition, 48 h
property_label: TGI (µM)

# compound, assay_target, qualifier_symbol, readout_value
rows = [
    ("CN1CCN(C)C12C=c1ccccc1=CC21CC1", "CAKI-1 renal", ">", 100),
    ("Oc1ccc(NCc2nc3ccccc3[nH]2)cc1", "CAKI-1 renal", ">", 100),
    ("COc1cc2c(/C=C3/C(=O)Nc4ccccc43)c(Cl)[nH]c2cc1C", "CAKI-1 renal", "=", 23.6),
    ("N#Cc1cc2c(cc1Cl)Sc1nccn1S2(=O)=O", "CAKI-1 renal", "=", 3.6),
    ("CC[C@@H]1CN(C)[C@H]2Cc3c([nH]c4ccccc34)C(=O)C[C@H]1C2C(=O)OC (stereo partly drawn)", "CAKI-1 renal", ">", 100),
    ("CC(=O)OCC(OC(C)=O)C1C[C@H]2O[C@@H]3[C@H](C[C@H]2O1)O[C@@]1(C[C@@H]3C)C[C@H](C)[C@@H]2O[C@]3(C[C@@H]2O1)C[C@H]1O[C@H]2[C@H](C)[C@H]4OC(=O)CC5CC[C@H]6OC7[C@H]8O[C@]9(CC[C@H]%10CC(O)(CO)[C@H](CC[C@H]%11C[C@@H](C)C(O)(CO)C(C[C@@H]4O[C@H]2C[C@H]1O3)O%11)O%10)CC8O[C@@H]7[C@@H](O9)[C@H]6O5 (stereo partly drawn)", "CAKI-1 renal", ">", 1),
    ("Oc1ccc(CN2CCC(N3CCCCC3)CC2)c2cccnc12", "CAKI-1 renal", ">", 100),
    ("CCCn1cnc2c(SCc3ccccc3Cl)nc(N)nc21", "CAKI-1 renal", "=", 44.1),
    ("COc1cc(C2NC(=O)c3ccccc3N2)ccc1OCCCCCOc1c(OC)cc(C2=NOC(c3cc(OC)c(OC)c(OC)c3)C2)cc1OC (stereo not drawn)", "CAKI-1 renal", ">", 100),
    ("FC(F)(F)c1cccc(Nc2nccc(-c3cnn4nc(-c5ccccc5)ccc34)n2)c1", "CAKI-1 renal", ">", 25),
    ("CC1=CC(=Nc2ccc(N(CCCl)CCCl)cc2)C=C(C)C1=O", "CAKI-1 renal", "=", 1.08),
    ("FC(F)(F)c1ccc2nc3n(c2c1)C(c1c(Cl)cccc1Cl)SC3 (stereo not drawn)", "CAKI-1 renal", "=", 28),
    ("CSC(C1c2ccccc2N(c2ccc(C)cc2)C2=NC(=O)N(C)C(=O)C21Cl)S(=O)(=O)c1ccc(C)cc1 (stereo not drawn)", "CAKI-1 renal", "=", 43.2),
    ("OCC(O)CC[CH2][Sn]([Br])([c]1ccccc1)[c]1ccccc1 (stereo not drawn)", "CAKI-1 renal", ">", 100),
    ("C=CC(=O)N1CC2(CCN(c3nc(OC4CCN(CCCOC)CC4)nc4c(OCC(F)(F)F)c(-c5c(C)ccc6[nH]ncc56)c(C5CC5)cc34)CC2)C1", "CAKI-1 renal", "=", 15.2),
    ("Cc1cn([C@@H]2C[C@H]2CO)c(=O)[nH]c1=O", "CAKI-1 renal", ">", 100),
    ("CC(=S)N=Cc1c(O)cc(C)oc1=O", "CAKI-1 renal", ">", 100),
    ("COc1cc(I)c2c3c1OC1C34CCN(C)C(C2)C4=CC(I)C1(OC)OC (stereo not drawn)", "CAKI-1 renal", "=", 93.8),
]
